# maps each entry to its KIDNEY_R
Organism: Rattus norvegicus
Assay: Open TG-GATES - Regimen: Single
Format: toxicity, organism-based, Sprague-Dawley
Set-up: regimen Single, gender Male, age 6 weeks
Conditions: in vivo, po, 0 mg/kg, 24 h, tissue Kidney, route gavage, dose level Control
observation.type: KIDNEY_R (g)

1) CCCNC(=O)NS(=O)(=O)c1ccc(Cl)cc1 [CHLORPROPAMIDE] | 0.9
2) CC(C)OC(=O)C(C)(C)Oc1ccc(C(=O)c2ccc(Cl)cc2)cc1 [FENOFIBRATE] | 0.8
3) CC/C(=C(\c1ccccc1)c1ccc(OCCN(C)C)cc1)c1ccccc1 | 0.9
4) CC1=C(/C=C/C(C)=C/C=C/C(C)=C/CO)C(C)(C)CCC1 | 0.9
5) NC(N)=Nc1nc(CSCCC(N)=NS(N)(=O)=O)cs1 | 1.1
6) Cc1ccc(C)c(OCCCC(C)(C)C(=O)O)c1 | 0.9
7) CN(C)CCN(Cc1cccs1)c1ccccn1 | 0.9
8) COc1cc2c(c(OC)c1OC)-c1ccc(OC)c(=O)cc1[C@@H](NC(C)=O)CC2 | 1.1
9) NNC(=O)c1ccncc1 | 1
10) COC1=CC(=O)C[C@@H](C)[C@]12Oc1c(Cl)c(OC)cc(OC)c1C2=O | 1

###

Organism: Rattus norvegicus
Test: Open TG-GATES - Regimen: Daily Repeat
Type: toxicity, organism-based, Sprague-Dawley
Parameters: regimen Daily Repeat, gender Male, age 6 weeks
Settings: in vivo, po, 100 mg/kg, […], tissue Plasma, route gavage, dose level Low, time 7 day
observation.type: Na (meq/L)

1. CCOC(=O)CCC(=O)O[C@H]1[C@H](O[C@@H]2[C@@H](C)[C@H](O[C@H]3C[C@@](C)(OC)[C@@H](O)[C@H](C)O3)[C@@H](C)C(=O)O[C@H](CC)[C@@](C)(O)[C@H](O)[C@@H](C)C(=O)[C@H](C)C[C@@]2(C)O)O[C@H](C)C[C@@H]1N(C)C [ERYTHROMYCIN ETHYLSUCCINATE] | 141.2
2. CCOc1ccc(NC(=O)CC(C)O)cc1 (stereo not given) | 144.4
3. COC1=CC(=O)C[C@@H](C)[C@]12Oc1c(Cl)c(OC)cc(OC)c1C2=O | 142
4. NC(N)=Nc1nc(CSCCC(N)=NS(N)(=O)=O)cs1 | 140.8
5. COc1ccc2[nH]c([S+]([O-])Cc3ncc(C)c(OC)c3C)nc2c1 (stereo not given) | 140.8

###

Species on record: Rattus norvegicus
Experiment: Open TG-GATES - Regimen: Daily Repeat
Assay type: toxicity, organism-based, Sprague-Dawley
Design: regimen Daily Repeat, gender Male, age 6 weeks
Details: in vivo, po, 0 mg/kg, 72 h, tissue Plasma, route gavage, dose level Control, time 3 day
observation.type: AST

1) CN(C)CCCN1c2ccccc2CCc2ccccc21 | 68.2 IU/L
2) CN(C)CCN(Cc1cccs1)c1ccccn1 | 68 IU/L
3) CCOC(=O)CCC(=O)O[C@H]1[C@H](O[C@@H]2[C@@H](C)[C@H](O[C@H]3C[C@@](C)(OC)[C@@H](O)[C@H](C)O3)[C@@H](C)C(=O)O[C@H](CC)[C@@](C)(O)[C@H](O)[C@@H](C)C(=O)[C@H](C)C[C@@]2(C)O)O[C@H](C)C[C@@H]1N(C)C [ERYTHROMYCIN ETHYLSUCCINATE] | 68.6 IU/L
4) CN1C(=O)CN=C(c2ccccc2)c2cc(Cl)ccc21 | 59.4 IU/L
5) O=C(CCCN1CCC(O)(c2ccc(Cl)cc2)CC1)c1ccc(F)cc1 | 59.6 IU/L
6) CC(C)OC(=O)C(C)(C)Oc1ccc(C(=O)c2ccc(Cl)cc2)cc1 [FENOFIBRATE] | 69 IU/L
7) COC1=CC(=O)C[C@@H](C)[C@]12Oc1c(Cl)c(OC)cc(OC)c1C2=O | 66.2 IU/L
8) CCOc1ccc(NC(=O)CC(C)O)cc1 (stereo not drawn) | 66.8 IU/L
